# Target system: human recombinant Monoacylglycerol Lipase (Homo sapiens, UniProt Q99685)
# Sequence (Q99685 whole entry): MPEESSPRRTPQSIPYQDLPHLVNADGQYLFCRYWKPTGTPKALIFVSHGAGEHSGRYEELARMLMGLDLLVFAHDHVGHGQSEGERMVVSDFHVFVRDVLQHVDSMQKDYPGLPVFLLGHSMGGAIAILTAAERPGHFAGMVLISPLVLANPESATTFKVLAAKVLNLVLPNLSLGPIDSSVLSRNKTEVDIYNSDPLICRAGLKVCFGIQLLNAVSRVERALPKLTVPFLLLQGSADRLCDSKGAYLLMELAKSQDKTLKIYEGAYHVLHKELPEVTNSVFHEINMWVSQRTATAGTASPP
# Method description: MAGL enzymatic assay (IC50; 7-HCA substrate added at T=0 min or T=30 min)
# Type: biochemical
# Measurement parameters: MAGL (T = 30 min) IC50, substrate 7-HCA added after 30 minute incubation (T=30 min); geometric mean of 2-5 determinations unless otherwise indicated
Reported property: pIC50
By convention, pIC50 is the negative base-10 log of a molar concentration.

O=C(O[C@H](CO)C(F)(F)F)N1CCC2(CC1)CC(c1ccc(F)cc1F)CO2 (single isomer, unassigned)    9.00
O=C(O[C@H](CO)C(F)(F)F)N1CCC2(CC1)CC(c1ccc(C(F)F)nc1)C2    8.70
CC(C)(C)c1ccn(C2COC3(CCN(C(=O)O[C@H](CO)C(F)(F)F)CC3)C2)n1 (single isomer, unassigned)    9.00
O=C(O[C@H](CO)C(F)(F)F)N1CCC2(CC1)CC(Cn1cc(C(F)(F)F)cn1)CO2 (single isomer, unassigned) [Example 3]    8.15
N#Cc1cccc(C2CCOC3(CCN(C(=O)O[C@H](CO)C(F)(F)F)CC3)C2)c1 (single isomer, unassigned)    8.52

API: the following record is the query input.
Here CN([C@H]1COC2(CCN(C(=O)O[C@H](CO)C(F)(F)F)CC2)C1)S(=O)(=O)CC1CC(F)(F)C1 was tested on human recombinant Monoacylglycerol Lipase (Homo sapiens, UniProt Q99685), and its pIC50 came to 7.89

Values compiled from patent US10626125B2.
